molecular target: HCV E1E2 complex, isolate H77 (genotype 1a) (hepatitis C virus genotype 1a, isolate …, UniProt P27958 192-383; P27958 384-746); experiment: Fab ELISA on unmasked E1E2
property_label: binding result

Quick check: binding result of Fab P1 (Fab, V domains shown, Soluble Fab) VH: EVQLLESGGGVVQPGGSLRLSCAASGFTFTSFTMHWVRQAPGKGLEWVALISHDGSNKDYADSVRGRFTVSRDNSKKMVYLQMSSLRPDDAAVYYCARGGPAYYTYSDTLTGYHNVVGDYWGQGTLVTVSS VL: ELTQSPGTLSLSPGERATLSCRASQVRGFLAWFQQKPGQAPRLLIYGASNRAPGIPDRFSGSGSGTDFTLTISRLEPEDFAVYYCQQYGDSPPITFGQGTRLEIKR ?
binds

Quick check: binding result of Fab P1a (Fab, V domains shown) VH: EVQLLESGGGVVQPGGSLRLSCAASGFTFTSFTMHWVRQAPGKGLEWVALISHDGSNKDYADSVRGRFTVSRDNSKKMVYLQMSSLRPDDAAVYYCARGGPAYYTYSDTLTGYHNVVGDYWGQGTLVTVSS VL: ELTQSPGTLSLSPGERATLSCRTSQSVSSTYLAWYQQKPGQPPRLLIYGASNRAPGIPDRFSGSGSGTDFTLTISRLEPEDFAVYYCQQYGDSPPITFGQGTRLDIKR ?
binds

Just for reference, patent US20110311550A1 is where these values come from.
